molecules and their reported Velvetleaf plant response rating
# Tested on: velvetleaf
# protocol-details: Test B pre/postemergence velvetleaf
# Type: in vivo, Abutilon theophrasti
# settings: Rate 500 g/ha, Postemergence; scale 0 to 10, 0 no effect, 10 complete control
Form field (numeric): enter value without unit.

Entry CC(C)N(C(=O)n1oc(=O)n(-c2cccnc2)c1=O)c1ccc(F)cc1 , velvetleaf data, Velvetleaf plant response rating value: 0

* * *

# System: giant foxtail
# protocol-details: Test B pre/postemergence giant foxtail
# Assay type: in vivo, Setaria faberii
# settings: Preemergence, Rate 500 g/ha; scale 0 to 10, 0 is no effect, 10 is complete control
Property: Giant foxtail plant response rating; scope: individual compounds
Hey, just send me the number, nothing else.

Take a look at these entries with their results.
CC(C)N(C(=O)n1oc(=O)n(C(CF)CF)c1=O)c1ccc(Cl)cc1 [Compound 468]; 10
CC(C)N(C(=O)n1oc(=O)n(C(C)C#N)c1=O)c1ccc(F)cc1F (stereo not shown) [Compound 432]; 9
CC(C)N(C(=O)n1oc(=O)n(CC#N)c1=O)c1ccccc1 [Compound 434]; 2
CCOC(=O)C=C(Cn1c(=O)on(C(=O)N(c2ccc(F)cc2)C(C)C)c1=O)OCC [Compound 396]; 10
CC(C)N(C(=O)n1oc(=O)n(C(C)C(=O)N(C)C)c1=O)c1ccc(F)cc1 (stereo not shown) [Compound 478]; 10
CC(C)N(C(=O)n1oc(=O)n(C[Si](C)(C)c2ccccc2)c1=O)c1ccc(Cl)cc1 [Compound 424]; 0

Next compound, Giant foxtail plant response rating to be filled in.
Recorded Giant foxtail plant response rating (compound CC(=O)C(C)n1c(=O)on(C(=O)N(c2ccc(F)cc2)C(C)C)c1=O (stereo not shown) [Compound 400] ): 10
